Test system: SK-MEL-5 melanoma
Assay: NCI tumour cell line growth inhibition, 48 h
reported metric: TGI

See these solved cases before continuing.
>  <structure as smiles>
CC1(C)[C@@H]2CC[C@]1(C)[C@H](OC(=O)CSC#N)C2

>  <experimental target>
SK-MEL-5 melanoma

>  <TGI>
> 100 µM

$$$$
>  <structure as smiles>
COc1ccc(C=O)cc1O[Si](C)(C)C(C)(C)C

>  <experimental target>
SK-MEL-5 melanoma

>  <TGI>
> 100 µM

$$$$

What measured TGI goes with C/C(=N\NS(=O)(=O)c1ccc(C)cc1)c1ccccn1 ? > 100 µM
